These data points were gathered from PubChem BioAssay.

experiment: E. coli growth modulation, two-sided OD650, primary screen, E. coli filamentation project, strain DRC41, 24 h (AID 1093); conditions: OD650, 24 h, higher = more signal, called active from +8 up or from −8 down;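 further: MC1000 strain lacking acrAB efflux and sulA so SOS filamentation is blocked; test concentration not given here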
property_measured: z-score
Answers are plain numbers.

Check out these entries, answers already filled in.
{"columns": ["compound", "z-score"],
 "data": [
  ["C=CC[C@@H]1C=C[C@H](Oc2ccc(C)cc2)[C@@H](COC(=O)NCc2cccc3ccccc23)O1", -0.61],
  ["COC(=O)CC=C[C@@H](C)[C@@H](C=NOC[C@@H](O)COCc1ccco1)NS(=O)(=O)c1ccc(C)cc1", 0.835],
  ["CCO[C@H](c1cc(OC)cc([N+](=O)[O-])c1OC)[C@H](C)[C@@H](OC)[C@H](C)C=CCC(=O)OC", -0.466],
  ["COc1ccc(COC(=O)NN=C2C[C@@H](O)[C@@H](O)[C@@H]3[C@@H]4C(=O)N(Cc5ccc6c(c5)OCO6)C(=O)[C@@H]4CC[C@H]23)cc1", 0.434],
  ["O=C1CCCC=C1C(O)COCc1ccccc1 (stereo unspecified)", 0.202],
  ["C=CC[C@@H]1C=C[C@H](ON=C(C)CCN2CCCc3nc(C)c(C)cc32)[C@@H](CO)O1", 1.05],
  ["COc1ccc(COC(=O)NN=C2C[C@@H](O)[C@@H](O)[C@@H]3[C@@H]4C(=O)N([C@@H](C)c5ccccc5)C(=O)[C@@H]4CC[C@@H]23)cc1", 0.918],
  ["CO[C@@H]1COC(=O)[C@@H]2CCCN2C(=O)[C@@H](C)COC(=O)CCC[C@H]1C", -0.76],
  ["CC(CCN1CCCc2nc(C)c(C)cc21)=NOC[C@@H](C)[C@H](OCc1ccccc1)C(C)C", -0.287],
  ["CC(C)CON=C1C[C@@H](O)[C@@H](O)[C@@H]2[C@@H]3C(=O)N(Cc4ccccc4)C(=O)[C@@H]3CC[C@H]12", 0.843]
]}

In the following, a different compound is considered.
Prompt: Fill blank: measured z-score of the compound `COc1ccc(O[C@H]2C=C[C@@H](c3ccccc3)O[C@@H]2COC(=O)CCC(C)=NOC[C@@H](O)COCc2ccco2)cc1` is ____.
Completion: -0.541
